Recorded values, source PubChem BioAssay (NCI).

System: HOP-62 NSCLC
Assay: NCI tumour cell line growth inhibition, 48 h
Observation type: log10 of TGI (log10 of the value in µM)
The base-10 logarithm of TGI, taken with TGI in µM, is what appears here.

Value lookup for log10 of TGI; key = CCCCCCc1cc2cc(-c3nc4ccccc4[nH]3)c(=Nc3ccccc3C)oc2cc1O 0.66

Value lookup for log10 of TGI; key = CCOc1ccc(NC(=O)C2=C(C)NC(C)=C(C(=O)Nc3ccc(OCC)cc3)C2c2ccc(O)c(OC)c2)cc1 1.97

Value lookup for log10 of TGI; key = CCOc1ccccc1NC(=O)c1cc2ccccc2cc1O 1.22

Value lookup for log10 of TGI; key = CC(C)[C@H]1CC[C@H]2[C@@H](CC[C@H]3[C@](C)(CN)CCC[C@]23C)C1 0.54

Value lookup for log10 of TGI; key = Cc1ccc(Cc2n[nH]c(=O)n2/N=C\CC/C=N\n2c(Cc3ccc(C)cc3)n[nH]c2=O)cc1 1.39

Value lookup for log10 of TGI; key = CCC[CH2][Sn]([CH2]CCC)([O]C(=O)c1cc(F)ccc1F)[O][Sn]([CH2]CCC)([CH2]CCC)[O]C(=O)c1cc(F)ccc1F 0.51

Value lookup for log10 of TGI; key = Cc1cc(NCCCNc2ccnc3cc(Cl)ccc23)nc(N2CCN(C)CC2)n1 1.32

Value lookup for log10 of TGI; key = CCN(CC)c1ccc(/C=C2/C[N+](C)(C)C/C(=C/c3ccc(N(CC)CC)cc3)C2=O)cc1 1.61

Value lookup for log10 of TGI; key = COC(c1cccc(C(O)(C(F)(F)F)C(F)(F)F)c1)(C(F)(F)F)C(F)(F)F 1.53

Value lookup for log10 of TGI; key = CC(=O)CCc1ccc(OC2OC(COC(=O)c3cc(O)c(O)c(O)c3)C(O)C(O)C2OC(=O)/C=C/c2ccccc2)cc1 (stereo unspecified) 1.53

Value lookup for log10 of TGI; key = Cn1c(-c2cccs2)cc(-c2ccccc2)c1-c1cccs1 1.71
